Target: MAP/microtubule affinity-regulating kinase 4 (Homo sapiens); further: in the data inactive means no Kd found up to 30 µM
Sequence (Q96L34 whole entry): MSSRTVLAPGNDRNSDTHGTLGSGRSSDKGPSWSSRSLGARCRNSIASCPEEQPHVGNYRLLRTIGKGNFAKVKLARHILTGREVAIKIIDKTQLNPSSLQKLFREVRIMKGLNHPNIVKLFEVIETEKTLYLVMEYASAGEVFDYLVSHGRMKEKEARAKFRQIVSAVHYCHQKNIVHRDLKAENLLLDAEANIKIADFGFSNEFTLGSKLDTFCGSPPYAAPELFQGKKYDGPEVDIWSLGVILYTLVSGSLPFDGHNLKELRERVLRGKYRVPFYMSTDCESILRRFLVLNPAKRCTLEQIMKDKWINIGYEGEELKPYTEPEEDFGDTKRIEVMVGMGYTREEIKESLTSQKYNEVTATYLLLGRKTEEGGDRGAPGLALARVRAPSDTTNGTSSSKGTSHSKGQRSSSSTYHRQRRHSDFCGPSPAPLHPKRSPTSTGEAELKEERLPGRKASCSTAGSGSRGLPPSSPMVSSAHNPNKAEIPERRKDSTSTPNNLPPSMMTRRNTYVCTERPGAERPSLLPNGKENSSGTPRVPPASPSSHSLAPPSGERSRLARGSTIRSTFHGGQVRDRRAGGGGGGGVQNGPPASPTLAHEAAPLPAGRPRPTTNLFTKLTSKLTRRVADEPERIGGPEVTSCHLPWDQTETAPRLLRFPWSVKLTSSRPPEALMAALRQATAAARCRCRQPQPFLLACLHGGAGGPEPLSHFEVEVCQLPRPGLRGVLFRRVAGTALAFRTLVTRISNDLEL
Where a name gives a salt, the structure may show the parent alone. Calls of active or inactive are those of the source.
// allowed return values: 1 (active), -1 (inactive)

Check out these entries, answers already filled in.
COc1cc2ncnc(Oc3cccc(NC(=O)Nc4cc(C(C)(C)C(F)(F)F)on4)c3)c2cc1OC: -1
CCS(=O)(=O)N1CCN(c2ccc(Nc3ncc(C(N)=O)c(NC4CC4)n3)cc2)CC1 [Cerdulatinib Hydrochloride]: -1
CCS(=O)(=O)c1cccc(-c2cc(C(=O)NC3CCN(C)CC3)c(C)c3[nH]c4ncc(C)cc4c23)c1: 1
NC(=O)c1c(OCc2c(F)cc(Br)cc2F)nsc1NC(=O)NCCCCN1CCCC1: -1
Cc1cc(Nc2ncnc3ccc(NC4=NC(C)(C)CO4)cc23)ccc1Oc1ccn2ncnc2c1: -1
Cn1cc(-c2cnn3c(N)c(Br)c([C@@H]4CCCNC4)nc23)cn1: -1
COc1cc2c(Nc3ccc(Cl)c(Cl)c3F)ncnc2cc1OC[C@@H]1C[C@@H]2CN(C)C[C@@H]2C1: -1

Now consider a different compound.
[ask] Fill in: this test's call for `C#Cc1cccc(Nc2ncnc3cc(OC)c(OCCCCCCC(=O)NO)cc23)c1` is ___
[reply] -1

----------
molecular target: Receptor-interacting serine/threonine-protein kinase 3 (Homo sapiens, UniProt Q9Y572); further: in the data inactive means no Kd found up to 30 µM
Sequence (Q9Y572 whole entry): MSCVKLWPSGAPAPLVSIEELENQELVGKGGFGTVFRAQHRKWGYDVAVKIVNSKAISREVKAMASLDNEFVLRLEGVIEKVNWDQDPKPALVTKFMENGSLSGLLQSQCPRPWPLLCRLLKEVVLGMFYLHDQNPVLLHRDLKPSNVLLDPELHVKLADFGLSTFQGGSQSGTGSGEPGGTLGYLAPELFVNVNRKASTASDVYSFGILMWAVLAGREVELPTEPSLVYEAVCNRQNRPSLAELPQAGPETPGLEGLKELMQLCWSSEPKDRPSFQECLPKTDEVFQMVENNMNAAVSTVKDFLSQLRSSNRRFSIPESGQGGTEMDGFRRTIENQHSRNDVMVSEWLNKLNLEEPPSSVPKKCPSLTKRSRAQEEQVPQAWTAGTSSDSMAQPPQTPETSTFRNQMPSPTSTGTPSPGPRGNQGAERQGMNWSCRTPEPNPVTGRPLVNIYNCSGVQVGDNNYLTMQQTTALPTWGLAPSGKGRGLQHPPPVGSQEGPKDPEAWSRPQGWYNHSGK
Activity calls are given as the source filed them.
// allowed return values: 1 = active, -1 = inactive

Check out these entries, answers already filled in.
NC(=O)c1c(OCc2c(F)cc(Br)cc2F)nsc1NC(=O)NCCCCN1CCCC1 [OSI-632]: -1
CN1CCN(CCOc2cc(OC3CCOCC3)c3c(Nc4c(Cl)ccc5c4OCO5)ncnc3c2)CC1 [SARACATINIB]: 1
Cn1cc(C2=C(c3cn(C4CCN(Cc5ccccn5)CC4)c4ccccc34)C(=O)NC2=O)c2ccccc21 [ENZASTAURIN]: -1
Cn1cc(-c2cnn3c(N)c(Br)c([C@@H]4CCCNC4)nc23)cn1 [SCH-900776]: -1
CCOc1cc2ncc(C#N)c(Nc3ccc(F)c(Cl)c3)c2cc1NC(=O)/C=C/CN(C)C [PELITINIB]: -1

[ask] Fill in: this test's call for `Cc1nc2cc(-c3nn(C(C)C)c4ncnc(N)c34)ccc2o1` is ___
[reply] 1

[ask] Fill in: this test's call for C[C@@H](Oc1cc(-n2cnc3ccc(CN4CCN(C)CC4)cc32)sc1C(N)=O)c1ccccc1C(F)(F)F [GSK-461364] is ___
[reply] -1

[ask] Fill in: this test's call for COc1cc([C@@H]2c3cc4c(cc3[C@H](O)[C@H]3COC(=O)[C@@H]23)OCO4)cc(OC)c1OC [AXL-1717] is ___
[reply] -1

[ask] Fill in: this test's call for O=C(NOCCO)c1cc(CN2OCCCC2=O)c(F)c(F)c1Nc1ccc(I)cc1F [RO-4987655] is ___
[reply] -1

----------
molecular target: cAMP-dependent protein kinase catalytic subunit beta (Homo sapiens, UniProt P22694); further: in the data inactive means no Kd found up to 30 µM
Active and inactive are the calls of the source.
// allowed return values: 1 (yes) (active), 0 (no) (inactive)

Check out these entries, answers already filled in.
C#Cc1cccc(Nc2ncnc3cc(OC)c(OCCCCCCC(=O)NO)cc23)c1: 0 (no)
O=C1NC(=O)[C@@H](c2cn3c4c(cccc24)CCC3)[C@@H]1c1c[nH]c2ccccc12 [TIVANTINIB]: 0 (no)
C[C@@H](N)c1ccc(C(=O)Nc2ccnc3[nH]ccc23)cc1: 0 (no)
COc1c(OCCCN2CCOCC2)ccc2c1N=C(NC(=O)c1cnc(N)nc1)N1CCN=C21: 0 (no)
O=C(Nc1nc2cccc(-c3ccc(CN4CCS(=O)(=O)CC4)cc3)n2n1)C1CC1: 0 (no)
COCc1c(-c2ccc(NC(=O)Nc3cc(C(F)(F)F)ccc3F)c(F)c2)c2c(N)ncnn2c1CN1CCOCC1: 0 (no)

[ask] Fill in: this test's call for `COCC(=O)NC/C=C/c1ccc2ncnc(Nc3ccc(Oc4ccc(C)nc4)c(C)c3)c2c1` is ___
[reply] 0 (no)

[ask] Fill in: this test's call for `Cc1csc(-c2nnc(Nc3ccc(Oc4ncccc4-c4ccnc(N)n4)cc3)c3ccccc23)c1` is ___
[reply] 0 (no)

[ask] Fill in: this test's call for `Cn1cnc2c(F)c(Nc3ccc(Br)cc3F)c(C(=O)NOCCO)cc21` is ___
[reply] 0 (no)

[ask] Fill in: this test's call for `CCOc1cc2ncc(C#N)c(Nc3ccc(F)c(Cl)c3)c2cc1NC(=O)/C=C/CN(C)C` is ___
[reply] 0 (no)

[ask] Fill in: this test's call for `CN1C/C=C/CCOc2cccc(c2)-c2ccnc(n2)Nc2cccc(c2)C1` is ___
[reply] 0 (no)

[ask] Fill in: this test's call for `CCCCCCCCCCCCCCCCCCOP(=O)([O-])OC1CC[N+](C)(C)CC1` is ___
[reply] 0 (no)

----------
molecular target: Tyrosine-protein kinase Lyn (Homo sapiens); further: in the data inactive means no Kd found up to 30 µM
Sequence (P07948 whole entry): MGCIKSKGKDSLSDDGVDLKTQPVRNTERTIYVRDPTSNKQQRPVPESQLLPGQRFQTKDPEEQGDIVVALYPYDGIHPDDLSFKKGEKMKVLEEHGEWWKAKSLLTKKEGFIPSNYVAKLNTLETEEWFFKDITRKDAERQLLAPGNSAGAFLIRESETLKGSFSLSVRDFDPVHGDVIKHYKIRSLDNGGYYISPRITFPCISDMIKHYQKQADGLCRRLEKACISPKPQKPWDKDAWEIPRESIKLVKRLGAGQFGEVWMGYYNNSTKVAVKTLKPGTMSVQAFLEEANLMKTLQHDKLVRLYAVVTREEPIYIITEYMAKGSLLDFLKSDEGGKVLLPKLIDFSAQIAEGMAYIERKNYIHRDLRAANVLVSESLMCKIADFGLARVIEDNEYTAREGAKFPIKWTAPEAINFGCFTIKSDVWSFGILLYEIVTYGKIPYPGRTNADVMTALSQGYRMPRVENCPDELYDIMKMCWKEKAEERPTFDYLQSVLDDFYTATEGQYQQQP
Where a name gives a salt, the structure may show the parent alone. Activity calls are given as the source filed them.
// allowed return values: active, inactive

Check out these entries, answers already filled in.
O=c1[nH]ccc2cc(OC3CCNCC3)ccc12 [SAR-407899 FREE BASE]: inactive
N#CC1(c2ccc(NC(=O)c3cccnc3NCc3ccncc3)cc2)CCCC1: inactive
COc1cc([C@@H]2c3cc4c(cc3[C@H](O)[C@H]3COC(=O)[C@@H]23)OCO4)cc(OC)c1OC: inactive
C=CC(=O)Nc1cc2c(Nc3ccc(F)c(Cl)c3)ncnc2cc1C#CC(C)(C)N1CCN(C)CC1 [AV-412 FREE BASE]: inactive
NC(=O)Nc1cc(-c2cccc(F)c2)sc1C(=O)N[C@H]1CCCNC1: active
CO[C@H]1C[C@@H]2CC[C@@H](C)[C@@](O)(O2)C(=O)C(=O)N2CCCC[C@H]2C(=O)O[C@H]([C@H](C)C[C@@H]2CC[C@@H](O)[C@H](OC)C2)CC(=O)[C@H](C)/C=C(\C)[C@@H](O)[C@@H](OC)C(=O)[C@H](C)C[C@H](C)/C=C/C=C/C=C/1C: inactive

[ask] Fill in: this test's call for `Cc1cc(Nc2ncnc3ccc(NC4=NC(C)(C)CO4)cc23)ccc1Oc1ccn2ncnc2c1` is ___
[reply] inactive

[ask] Fill in: this test's call for `CC(C)c1cc(CNc2nc(Nc3cc(C4CC4)[nH]n3)cc(N3CCN(C)CC3)n2)on1` is ___
[reply] active

[ask] Fill in: this test's call for `Cc1nc2cc(-c3nn(C(C)C)c4ncnc(N)c34)ccc2o1` is ___
[reply] inactive

[ask] Fill in: this test's call for O=C1NC(=O)[C@@H](c2cn3c4c(cccc24)CCC3)[C@@H]1c1c[nH]c2ccccc12 [TIVANTINIB] is ___
[reply] inactive

[ask] Fill in: this test's call for `Cc1nc2cc(-n3ncc(C(=O)c4cc5ccccc5[nH]4)c3N)ccc2[nH]1` is ___
[reply] inactive

[ask] Fill in: this test's call for `Cc1cc(C(=O)NOCCO)c(Nc2ccc(I)cc2F)n(C)c1=O` is ___
[reply] inactive

[ask] Fill in: this test's call for `CCNC(=O)C#Cc1ccc2c(c1)NC(=O)/C2=C(\Nc1ccc(CN(C)C)cc1)c1ccccc1` is ___
[reply] active

[ask] Fill in: this test's call for `Cc1cc(Nc2ncc(Cl)c(Nc3ccccc3S(=O)(=O)C(C)C)n2)c(OC(C)C)cc1C1CCNCC1` is ___
[reply] inactive

[ask] Fill in: this test's call for CCS(=O)(=O)N1CCN(c2ccc(Nc3ncc(C(N)=O)c(NC4CC4)n3)cc2)CC1 [Cerdulatinib Hydrochloride] is ___
[reply] inactive
